# system_under_test: tau (Homo sapiens, UniProt P10636)
# Sequence (P10636 623-695 limits assumed): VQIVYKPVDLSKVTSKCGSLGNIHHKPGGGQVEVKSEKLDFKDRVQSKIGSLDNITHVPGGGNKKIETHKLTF
# assay: MCE Phenols Library screening, tau biosensor cell seeding assay (AvZ)
# Assay type: cell-based
# condition_details: Z score, replicate 1
measure: Z repl 1
I'd appreciate a reply containing only the number, no unit.

COc1cc(-c2oc3cc(O)cc(O)c3c(=O)c2O[C@@H]2O[C@H](CO[C@@H]3O[C@@H](C)[C@H](O)[C@@H](O)[C@H]3O)[C@@H](O)[C@H](O)[C@H]2O[C@@H]2O[C@@H](C)[C@H](O)[C@@H](O)[C@H]2O)ccc1O [Typhaneoside]	-0.172
O=Cc1c[nH]c2cccc(O)c12 [4-Hydroxy-1H-indole-3-carbaldehyde]	0.51

Please turn your attention to the following entry.
Z repl 1 in this record for O=c1cc(-c2ccc(O)c(-c3c(O)cc(O)c4c(=O)cc(-c5ccc(O)cc5)oc34)c2)oc2cc(O)cc(O)c12 [Amentoflavone] : -0.87

----------
# system_under_test: tau (Homo sapiens, UniProt P10636)
# assay: MCE Phenols Library screening, tau biosensor cell seeding assay (AvZ)
# Assay type: cell-based
# condition_details: raw puncta, replicate 1
Output Fulfilled for records whose raw data 1 is lower than 20000, Not fulfilled for records at or above 20000.

These recorded examples may help you get a feel for the data.
COc1ccc(CCC(=O)c2c(O)cc(O[C@@H]3O[C@H](CO)[C@@H](O)[C@H](O)[C@H]3O[C@@H]3O[C@@H](C)[C@H](O)[C@@H](O)[C@H]3O)cc2O)cc1O [Neohesperidin dihydrochalcone]	Not fulfilled
O=C(/C=C/c1ccc(O)cc1)c1ccccc1 [4-Hydroxychalcone]	Fulfilled
O=C(O)CCc1ccc(O)c(O)c1 [Dihydrocaffeic acid]	Not fulfilled
Cc1cc(O)c2c(c1)C(=O)c1cc(O)cc(O)c1C2=O [Emodin]	Not fulfilled
O=c1c(O[C@@H]2O[C@H](CO)[C@@H](O)[C@H](O)[C@H]2O[C@@H]2O[C@H](CO)[C@@H](O)[C@H](O)[C@H]2O)c(-c2ccc(O)cc2)oc2cc(O)cc(O)c12 [Kaempferol 3-O-sophoroside]	Fulfilled
O=c1c(O[C@@H]2O[C@H](CO)[C@H](O)[C@H](O)[C@H]2O)c(-c2ccc(O)c(O)c2)oc2cc(O)cc(O)c12 [Hyperoside]	Not fulfilled

*Q* In plain terms, does COC1=C[C@@H]2[C@@H]3Cc4ccc(OC)c(O)c4[C@]2(CCN3C)CC1=O.Cl [Sinomenine hydrochloride] come in under 20000 for raw data 1?
*A* Fulfilled

----------
# system_under_test: tau (Homo sapiens, UniProt P10636)
# assay: MCE Phenols Library screening, tau biosensor cell seeding assay (AvZ)
# Type: cell-based
# condition_details: puncta, replicate 2
raw data 2 values by entry
I'd appreciate a reply containing only the number, no unit.

Below are worked cases with known answers.
CN(C)[C@@H]1C(O)=C(C(N)=O)C(=O)[C@@]2(O)C(O)=C3C(=O)c4c(O)cccc4[C@@](C)(O)[C@H]3C[C@@H]12.Cl [Tetracycline (hydrochloride)]	17786.4
Cc1cc(O)c2c(=O)c3c(O)cc(O)c4c5c(O)cc(O)c6c(=O)c7c(O)cc(C)cc7c(c65)c(c2c1)c34	4183.21
O=C(/C=C/c1ccc(O)c(O)c1)OCCc1ccccc1	8559.5
C[C@@H]1O[C@@H](OC[C@H]2O[C@@H](Oc3c(-c4ccc(OCCO)c(OCCO)c4)oc4cc(OCCO)cc(O)c4c3=O)[C@H](O)[C@@H](O)[C@@H]2O)[C@H](O)[C@H](O)[C@H]1O	6703.04

raw data 2 in this record for `C[C@]12CC[C@@H]3c4ccc(O)cc4CC[C@H]3[C@@H]1C[C@@H](O)[C@@H]2O` : 19589.9

raw data 2 in this record for O=C(C=Cc1ccc(O)c(O)c1)OC1CC(O)(C(=O)O)CC(O)C1OC(=O)C=Cc1ccc(O)c(O)c1 (stereo not drawn) : 10071.7

----------
# system_under_test: tau (Homo sapiens)
# assay: MCE Phenols Library screening, tau biosensor cell seeding assay (AvZ)
# Assay type: cell-based
# condition_details: raw puncta, replicate 1
raw data 1 values by entry

Below are worked cases with known answers.
O=c1c(-c2ccc(O)cc2)coc2cc(O)ccc12 [Daidzein]	27554
O=c1c(O[C@@H]2OC[C@@H](O)[C@H](O)[C@H]2O)c(-c2ccc(O)c(O)c2)oc2cc(O)cc(O)c12 [Reynoutrin]	20455.1
CC=C1[C@H](O[C@@H]2O[C@H](CO)[C@@H](O)[C@H](O)[C@H]2O)OC=C(C(=O)OC)[C@H]1CC(=O)OC[C@H]1O[C@@H](OCCc2ccc(O)cc2)[C@H](O)[C@@H](O)[C@@H]1O (stereo in doubt) [Specneuzhenide]	15493.9
CC(=O)CCc1ccc(O)cc1 [Raspberry ketone]	26674.5
Cc1cccc(O)c1O [3-Methylcatechol]	20851.2

raw data 1 in this record for COc1cc(-c2oc3cc(O)cc(O)c3c(=O)c2O)ccc1O [Isorhamnetin] : 27835.2

raw data 1 in this record for O=C(O[C@H](Cc1ccc(O)c(O)c1)C(=O)O)C1=Cc2cc(O)c(O)cc2[C@H](c2ccc(O)c(O)c2)[C@H]1C(=O)OC(Cc1ccc(O)c(O)c1)C(=O)O (stereo in doubt) [Rabdosiin] : 20858.2

raw data 1 in this record for COc1cc(CCCO)cc(OC)c1O [Dihydrosinapyl alcohol] : 16882.6

----------
# system_under_test: tau (Homo sapiens, UniProt P10636)
# assay: MCE Phenols Library screening, tau biosensor cell seeding assay (AvZ)
# Format: cell-based
# condition_details: puncta, replicate 1
raw data 1 values by entry
I'd appreciate a reply containing only the number, no unit.

Below are worked cases with known answers.
COc1cc(O)c2c(=O)c(OC)c(-c3ccc(OC)c(OC)c3)oc2c1 [Retusin]	19450.4
O=c1c(O)c(-c2ccc(O)c(O)c2)oc2cc(O[C@@H]3O[C@H](CO)[C@@H](O)[C@H](O)[C@H]3O)c(O)c(O)c12 [Quercetagitrin]	7422.91
Cc1cc(O)c2c(c1)C(=O)c1cc(O)cc(O[C@@H]3O[C@H](CO)[C@@H](O)[C@H](O)[C@H]3O)c1C2=O [Emodin-8-glucoside]	27700.1
CC(C)=CCc1c(-c2ccc(O)cc2O)oc2c([C@H]3C=C(C)C[C@@H](c4ccc(O)cc4O)[C@@H]3C(=O)c3ccc(O)cc3O)c(O)cc(O)c2c1=O [Kuwanon G]	27102.4
COc1cc(/C=C/C=O)cc(OC)c1O [Sinapaldehyde]	26603.6
O=C1O[C@@H]2[C@@H](O)[C@H](O)[C@@H](CO)O[C@H]2c2c1cc(O)c(O)c2O [Norbergenin]	20005.8

Please turn your attention to the following entry.
GET /values?item= COc1ccc(-c2cc(=O)c3c(O)c(OC)c(OC)cc3o2)cc1OC [5-Desmethylsinensetin] &system= tau (Homo sapiens, UniProt P10636) returns raw data 1: 28033.5

----------
# system_under_test: tau (Homo sapiens, UniProt P10636)
# assay: MCE Phenols Library screening, tau biosensor cell seeding assay (AvZ)
# Format: cell-based
# condition_details: puncta, replicate 1
raw data 1 values by entry
I'd appreciate a reply containing only the number, no unit.

O=C(O)c1cc(O)c2c(c1)C(=O)c1cccc(O[C@@H]3O[C@H](CO)[C@@H](O)[C@H](O)[C@H]3O)c1C2=O [Rhein 8-Glucoside]	34038.2
O=C(CCc1ccc(O)cc1)c1c(O)cc(O)cc1O [Phloretin]	16053.8

raw data 1 in this record for COc1ccc(-c2oc3c(CC=C(C)C)c(O)cc(O)c3c(=O)c2O[C@@H]2O[C@@H](C)[C@H](O)[C@@H](O)[C@H]2O)cc1 [Baohuoside I] : 37856.1

----------
# system_under_test: UniProtKB P10636
# assay: Tau biosensor dose titrations (HEK293T tau biosensor cells seeded with AD brain homogenate);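 also: AD brain homogenate preincubated 16 h with compound, then transfected into tau biosensor cells, seeding read as tau puncta counted by imaging, normalized to cell confluence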
# Format: cell-based
# condition_details: AD brain homogenate diluted to 0.11 ng/μl ptau; read-out: IC50 low tau load
measure: IC50

IC50 in this record for NC[C@H](O)c1ccc(O)c(O)c1 [NE, norepinephrine, reference compound] : > 25 µM

----------
# system_under_test: tau (Homo sapiens)
# assay: MCE Phenols Library screening, tau biosensor cell seeding assay (AvZ)
# Format: cell-based
# condition_details: puncta, replicate 2
The label depends only on raw data 2: Criterion met if it is at least 10000, Criterion not met if it is smaller.

These recorded examples may help you get a feel for the data.
COc1c(O[C@@H]2O[C@H](C(=O)O)[C@@H](O)[C@H](O)[C@H]2O)cc2oc(-c3ccccc3)cc(=O)c2c1O [Oroxylin A-7-O-glucuronide]	Criterion met
O=C(/C=C/c1ccc(O)c(O)c1)c1ccc(O)c(O)c1O [Okanin]	Criterion not met
CCCOC(=O)c1cc(O)c(O)c(O)c1 [Propyl gallate]	Criterion not met
O=C(/C=C/c1ccc(O)cc1)CC(=O)/C=C/c1ccc(O)cc1 [Bisdemethoxycucurmin]	Criterion met
O=c1cc(-c2ccc(O)cc2)oc2cc(O)c([C@@H]3O[C@H](CO)[C@@H](O)[C@H](O)[C@H]3O)c(O)c12 [Isovitexin]	Criterion met
O=C1O[C@H]2[C@@H]3OC(=O)c4cc(O)c(O)c(O)c4-c4c(cc(O)c(O)c4O)C(=O)OC[C@H]2O[C@@H](OC(=O)c2cc(O)c(O)c(O)c2)[C@@H]3OC(=O)c2cc(O)c(O)c3c2[C@@H]2C1=CC(=O)[C@](O)(O3)C2(O)O [Geraniin]	Criterion not met
O=c1cc(-c2ccc(O)cc2)oc2cccc(O)c12 [4',5-Dihydroxyflavone]	Criterion met
COc1ccc(-c2cc(=O)c3c(O)c(OC)c(O)cc3o2)cc1 [Pectolinarigenin]	Criterion met

*Q* Given the entry O=C(O)c1c(O)cccc1O [2,6-Dihydroxybenzoic acid] , answer whether its raw data 2 meets or surpasses 10000.
*A* Criterion met

*Q* Given the entry O=C(O)Cc1cc(O)ccc1O [Homogentisic acid] , answer whether its raw data 2 meets or surpasses 10000.
*A* Criterion not met

*Q* Given the entry COc1ccc(-c2cc(=O)c3c(O)c(OC)c(OC)c(OC)c3o2)cc1 [Gardenin B] , answer whether its raw data 2 meets or surpasses 10000.
*A* Criterion met

*Q* Given the entry O=C([O-])C(O)Cc1ccc(O)c(O)c1.[Na+] (stereo not shown) [Danshensu (sodium salt)] , answer whether its raw data 2 meets or surpasses 10000.
*A* Criterion not met

*Q* Given the entry O=C(O[C@@H]1Cc2c(O)cc(O)cc2O[C@@H]1c1cc(O)c(O)c(O)c1)c1cc(O)c(O)c(O)c1 [(-)-Epigallocatechin Gallate] , answer whether its raw data 2 meets or surpasses 10000.
*A* Criterion not met

*Q* Given the entry CC(C)c1cc2c(c(O)c1O)[C@@]13CCCC(C)(C)[C@@H]1C[C@@H]2OC3=O [Carnosol] , answer whether its raw data 2 meets or surpasses 10000.
*A* Criterion not met
